molecular target: integrin α4β1 (Homo sapiens, UniProt P05556+P13612); construct: cell strain Jurkat (ATCC TIB-152) of human T cells, known to express integrin α4β1; host or cells: Jurkat (human T cell line); assay: VCAM antagonist activity (VCAM-1/α4β1 binding assay); type: cell-based; conditions: Jurkat cells binding to VCAM-1; read-out: VCAM antagonistic activity (IC50) α4β1
Sequence (P13612 34-1032): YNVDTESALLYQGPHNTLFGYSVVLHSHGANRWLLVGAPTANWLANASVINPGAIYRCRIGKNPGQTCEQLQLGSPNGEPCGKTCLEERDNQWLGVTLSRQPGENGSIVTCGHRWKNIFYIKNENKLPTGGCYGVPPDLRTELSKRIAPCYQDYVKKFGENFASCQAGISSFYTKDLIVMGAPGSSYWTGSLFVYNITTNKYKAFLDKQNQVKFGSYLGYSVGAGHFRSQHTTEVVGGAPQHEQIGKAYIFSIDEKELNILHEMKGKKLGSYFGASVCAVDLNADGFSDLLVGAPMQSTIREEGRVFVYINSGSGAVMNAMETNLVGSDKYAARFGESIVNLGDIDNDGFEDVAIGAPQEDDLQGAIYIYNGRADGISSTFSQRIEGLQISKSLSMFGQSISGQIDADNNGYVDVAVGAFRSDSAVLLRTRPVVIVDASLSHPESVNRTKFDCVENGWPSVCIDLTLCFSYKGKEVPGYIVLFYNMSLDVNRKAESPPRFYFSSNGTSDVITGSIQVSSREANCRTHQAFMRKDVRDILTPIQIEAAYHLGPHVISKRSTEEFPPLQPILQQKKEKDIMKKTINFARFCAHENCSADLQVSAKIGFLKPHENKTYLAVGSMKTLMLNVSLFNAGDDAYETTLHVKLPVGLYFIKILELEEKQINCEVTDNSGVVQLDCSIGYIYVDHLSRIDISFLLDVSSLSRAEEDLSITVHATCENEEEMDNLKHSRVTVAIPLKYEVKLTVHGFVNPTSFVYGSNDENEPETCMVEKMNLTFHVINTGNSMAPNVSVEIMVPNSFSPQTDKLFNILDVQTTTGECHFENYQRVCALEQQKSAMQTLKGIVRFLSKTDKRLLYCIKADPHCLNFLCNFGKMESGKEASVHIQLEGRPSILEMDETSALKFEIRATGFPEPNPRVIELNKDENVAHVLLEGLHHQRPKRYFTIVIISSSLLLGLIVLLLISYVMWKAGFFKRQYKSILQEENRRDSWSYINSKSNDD
Sequence (P05556 21-798): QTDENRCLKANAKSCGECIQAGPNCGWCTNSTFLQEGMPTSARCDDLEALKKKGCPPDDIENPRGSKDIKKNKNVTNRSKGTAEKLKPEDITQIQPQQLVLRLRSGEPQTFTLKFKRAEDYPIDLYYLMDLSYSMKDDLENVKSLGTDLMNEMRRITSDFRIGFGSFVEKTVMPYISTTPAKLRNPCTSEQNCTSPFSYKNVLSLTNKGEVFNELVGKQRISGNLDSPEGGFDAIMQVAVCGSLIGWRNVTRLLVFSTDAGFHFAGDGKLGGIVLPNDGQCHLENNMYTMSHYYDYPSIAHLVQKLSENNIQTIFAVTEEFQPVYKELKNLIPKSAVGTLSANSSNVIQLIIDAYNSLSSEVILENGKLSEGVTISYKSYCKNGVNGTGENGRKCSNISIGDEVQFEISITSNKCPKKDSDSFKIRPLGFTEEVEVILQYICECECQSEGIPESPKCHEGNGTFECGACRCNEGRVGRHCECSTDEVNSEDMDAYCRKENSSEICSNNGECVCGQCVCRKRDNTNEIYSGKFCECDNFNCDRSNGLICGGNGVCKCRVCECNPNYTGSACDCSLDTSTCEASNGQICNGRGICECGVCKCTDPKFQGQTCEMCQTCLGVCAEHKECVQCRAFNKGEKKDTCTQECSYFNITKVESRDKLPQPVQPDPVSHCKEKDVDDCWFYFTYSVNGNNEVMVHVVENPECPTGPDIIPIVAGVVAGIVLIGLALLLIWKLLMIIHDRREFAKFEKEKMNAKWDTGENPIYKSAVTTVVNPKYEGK
pIC50: −log10 of the molar value.
Quick reference for pIC50 among some molecules
VALUE_KIND: pIC50

| MOLECULE | VAL |
| --- | --- |
| CCC(CC)(C(=O)N[C@@H](Cc1ccc(OCc2c(Cl)cccc2Cl)cc1)C(=O)O)C(=O)N1CCOCC1 | 5.70 to 7.00 |
| CCC(CC)(C(=O)N[C@@H](Cc1ccc(OCc2c(Cl)cccc2Cl)cc1)C(=O)O)C(=O)N(C)CCN(C)C | 5.70 to 7.00 |
| CCC(CC)(C(=O)N[C@@H](Cc1ccc(NC(=O)c2c(Cl)cccc2Cl)cc1)C(=O)O)C(=O)N1CCCC1 | > 7.70 |
| CCC(CC)(C(=O)N[C@@H](Cc1ccc(OCc2c(Cl)cccc2Cl)cc1)C(=O)O)C(=O)N1CC[C@@H](NC(=O)C(F)(F)F)C1 | 5.70 to 7.00 |
| CCC(CC)(C(=O)N[C@@H](Cc1ccc(OCc2c(Cl)cccc2Cl)cc1)C(=O)O)C(=O)N1CC[C@@H](O)C1 | 7.00 to 7.70 |
| CCC(CC)(C(=O)N[C@@H](Cc1ccc(-n2c(=O)c3ccccc3n(Cc3ccc4ccccc4c3)c2=O)cc1)C(=O)O)C(=O)N1CCCC1 | 5.70 to 7.00 |
| CCC(CC)(C(=O)N[C@@H](Cc1ccc(OCc2c(Cl)cccc2Cl)cc1)C(=O)O)C(=O)N1CCC[C@H]1C(N)=O | 5.70 to 7.00 |
| CN(C(=O)C1(C(=O)N[C@@H](Cc2ccc(OCc3c(Cl)cccc3Cl)cc2)C(=O)O)CC1)c1ccccc1 | 5.00 to 5.70 |
| CCC(CC)(C(=O)N[C@@H](Cc1ccc(OCc2c(Cl)cccc2Cl)cc1)C(=O)O)C(=O)N1CCC1 | 5.70 to 7.00 |
| CN(C)C(=O)C1(C(=O)N[C@@H](Cc2ccc(OCc3c(Cl)cccc3Cl)cc2)C(=O)O)CCC1 | 5.70 to 7.00 |
| CCC(CC)(C(=O)N[C@@H](Cc1ccc(OCc2c(Cl)cccc2Cl)cc1)C(=O)O)C(=O)N1CCC[C@H]1C(=O)NC | 7.00 to 7.70 |
| CCCNc1ncc(Cl)c(C(=O)Nc2ccc(C[C@H](NC(=O)C(CC)(CC)C(=O)N3CCCC3)C(=O)O)cc2)n1 | 7.00 to 7.70 |
| COc1ccc(Br)c(C(=O)Nc2ccc(C[C@H](NC(=O)C3(C(=O)N(C)C)CC3)C(=O)O)cc2)c1 | 5.70 to 7.00 |
| CCC(CC)(C(=O)NC(Cc1ccc(OCc2c(Cl)cccc2Cl)cc1)C(=O)O)C(=O)N1CCCCC1C(N)=O (mixture of isomers) | 5.70 to 7.00 |
| CCC(CC)(C(=O)N[C@@H](Cc1ccc(NC(=O)c2nc(N3CCCC3)ncc2Cl)cc1)C(=O)O)C(=O)N1CCCC1 | 7.00 to 7.70 |
| O=CN1CCN(C(=O)C2(C(=O)N[C@@H](Cc3ccc(OCc4c(Cl)cccc4Cl)cc3)C(=O)O)CCC2)CC1 | 5.70 to 7.00 |
| CCC(CC)(C(=O)NCCc1ccc(O)cc1)C(=O)N[C@@H](Cc1ccc(OCc2c(Cl)cccc2Cl)cc1)C(=O)O | 5.00 to 5.70 |
| CCC(CC)(C(=O)N[C@@H](Cc1ccc(OCc2c(Cl)cccc2Cl)cc1)C(=O)O)C(=O)N1CCC[C@H]1COC | 5.70 to 7.00 |
